Just for reference, the kinase profiling compilation of Christmann-Franck et al. (2016) is where these values come from.

# subject of test: BMPR2 (human) (UniProt Q13873)
# Sequence (Q13873 whole entry, looked up): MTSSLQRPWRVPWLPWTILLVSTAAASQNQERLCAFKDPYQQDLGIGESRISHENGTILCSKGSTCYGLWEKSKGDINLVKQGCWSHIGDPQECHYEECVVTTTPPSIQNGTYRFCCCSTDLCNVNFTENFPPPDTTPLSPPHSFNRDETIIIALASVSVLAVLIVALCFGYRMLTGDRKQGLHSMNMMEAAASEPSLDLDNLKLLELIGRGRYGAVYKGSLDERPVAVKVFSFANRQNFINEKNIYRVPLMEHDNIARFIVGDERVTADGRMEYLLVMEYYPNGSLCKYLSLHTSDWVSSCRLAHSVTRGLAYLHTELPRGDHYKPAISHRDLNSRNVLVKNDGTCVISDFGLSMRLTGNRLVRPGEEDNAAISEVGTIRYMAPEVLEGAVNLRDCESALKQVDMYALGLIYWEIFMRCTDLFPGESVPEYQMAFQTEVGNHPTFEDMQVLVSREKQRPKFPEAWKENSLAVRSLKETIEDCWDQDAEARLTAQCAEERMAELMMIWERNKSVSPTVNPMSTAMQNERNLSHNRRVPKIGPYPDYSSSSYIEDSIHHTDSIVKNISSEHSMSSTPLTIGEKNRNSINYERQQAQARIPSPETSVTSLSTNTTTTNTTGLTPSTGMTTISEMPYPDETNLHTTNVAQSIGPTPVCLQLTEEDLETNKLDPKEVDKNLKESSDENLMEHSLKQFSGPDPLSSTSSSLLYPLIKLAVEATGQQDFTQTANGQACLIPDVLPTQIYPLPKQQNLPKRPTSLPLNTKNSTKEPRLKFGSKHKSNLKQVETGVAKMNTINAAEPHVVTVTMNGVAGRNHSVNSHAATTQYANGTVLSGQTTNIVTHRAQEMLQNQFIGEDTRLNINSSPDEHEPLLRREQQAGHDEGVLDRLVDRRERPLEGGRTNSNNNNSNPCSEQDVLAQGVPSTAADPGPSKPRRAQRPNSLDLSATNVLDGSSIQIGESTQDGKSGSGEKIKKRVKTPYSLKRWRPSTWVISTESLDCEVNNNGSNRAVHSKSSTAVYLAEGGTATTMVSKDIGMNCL
# method summary: KINOMEscan competition binding
# measurement parameters: compound 10.0 µM

# record smiles, subject of test, kinase still bound, per cent of control (%)
data = [
    ("CCC(=O)N1CCN(c2ccc(-n3c(=O)ccc4cnc5ccc(-c6cnc7ccccc7c6)cc5c43)cc2C(F)(F)F)CC1", "BMPR2 (human) (UniProt Q13873)", 85),
    ("CC(C)n1nc(-c2cc3cc(O)ccc3[nH]2)c2c(N)ncnc21", "BMPR2 (human) (UniProt Q13873)", 0.1),
    ("COc1ccc(-c2ccc3c(N4CCOCC4)nc(N4C[C@@H](C)O[C@@H](C)C4)nc3n2)cc1CO", "BMPR2 (human) (UniProt Q13873)", 79),
    ("COC(=O)Nc1ccc(-c2nc(N3CCOCC3)c3cnn(C4CCN(C(=O)OC)CC4)c3n2)cc1", "BMPR2 (human) (UniProt Q13873)", 92),
]

----------
# subject of test: CDK9 (human) (UniProt P50750)
# Sequence (P50750 whole entry, looked up): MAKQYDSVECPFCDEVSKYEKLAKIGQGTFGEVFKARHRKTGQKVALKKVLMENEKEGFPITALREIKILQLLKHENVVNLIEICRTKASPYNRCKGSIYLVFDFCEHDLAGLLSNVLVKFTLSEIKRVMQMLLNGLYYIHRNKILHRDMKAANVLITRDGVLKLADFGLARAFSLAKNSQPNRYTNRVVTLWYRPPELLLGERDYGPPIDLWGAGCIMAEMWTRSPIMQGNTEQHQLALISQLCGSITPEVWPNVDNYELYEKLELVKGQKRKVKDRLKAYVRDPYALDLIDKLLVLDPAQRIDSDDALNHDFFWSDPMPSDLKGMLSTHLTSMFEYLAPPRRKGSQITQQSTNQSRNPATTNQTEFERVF
# method summary: KINOMEscan competition binding
# measurement parameters: compound 10.0 µM

# record smiles, subject of test, per cent of control / %
records = [
    ("COC(=O)Nc1ccc(-c2nc(N3CCOCC3)c3cnn(C4CCN(C(=O)OC)CC4)c3n2)cc1", "CDK9 (human) (UniProt P50750)", 100),
    ("CC(C)n1nc(-c2cc3cc(O)ccc3[nH]2)c2c(N)ncnc21", "CDK9 (human) (UniProt P50750)", 96),
    ("COc1ccc(-c2ccc3c(N4CCOCC4)nc(N4C[C@@H](C)O[C@@H](C)C4)nc3n2)cc1CO", "CDK9 (human) (UniProt P50750)", 98),
    ("CCC(=O)N1CCN(c2ccc(-n3c(=O)ccc4cnc5ccc(-c6cnc7ccccc7c6)cc5c43)cc2C(F)(F)F)CC1", "CDK9 (human) (UniProt P50750)", 94),
]

----------
# subject of test: UniProt Q8TDC3
# Sequence (Q8TDC3 whole entry, looked up): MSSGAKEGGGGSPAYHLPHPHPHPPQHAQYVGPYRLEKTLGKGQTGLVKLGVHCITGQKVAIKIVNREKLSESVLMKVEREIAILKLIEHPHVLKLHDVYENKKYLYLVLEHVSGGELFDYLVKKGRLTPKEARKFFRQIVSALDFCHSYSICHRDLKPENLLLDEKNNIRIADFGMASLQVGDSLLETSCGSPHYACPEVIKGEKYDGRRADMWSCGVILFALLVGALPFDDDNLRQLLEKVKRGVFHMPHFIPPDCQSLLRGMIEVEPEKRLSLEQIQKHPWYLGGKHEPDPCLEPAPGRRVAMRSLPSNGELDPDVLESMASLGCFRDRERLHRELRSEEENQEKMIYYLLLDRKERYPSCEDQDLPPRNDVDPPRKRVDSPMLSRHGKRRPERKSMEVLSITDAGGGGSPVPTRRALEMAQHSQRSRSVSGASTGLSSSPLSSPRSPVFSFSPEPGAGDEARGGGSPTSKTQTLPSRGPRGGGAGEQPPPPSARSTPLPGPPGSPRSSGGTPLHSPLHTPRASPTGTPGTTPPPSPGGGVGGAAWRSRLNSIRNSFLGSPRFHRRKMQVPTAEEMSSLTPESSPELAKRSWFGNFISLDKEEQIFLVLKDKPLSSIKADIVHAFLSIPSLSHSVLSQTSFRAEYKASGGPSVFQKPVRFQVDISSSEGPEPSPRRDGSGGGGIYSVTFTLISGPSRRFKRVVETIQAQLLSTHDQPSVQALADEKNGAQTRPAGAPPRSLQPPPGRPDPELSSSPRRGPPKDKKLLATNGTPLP
# method summary: KINOMEscan competition binding
# measurement parameters: compound 10.0 µM
List of kinase still bound, per cent of control values.

# record smiles, kinase still bound, per cent of control
records = [
    ("CC(C)n1nc(-c2cc3cc(O)ccc3[nH]2)c2c(N)ncnc21", "1.6%"),
    ("COC(=O)Nc1ccc(-c2nc(N3CCOCC3)c3cnn(C4CCN(C(=O)OC)CC4)c3n2)cc1", "95%"),
    ("COc1ccc(-c2ccc3c(N4CCOCC4)nc(N4C[C@@H](C)O[C@@H](C)C4)nc3n2)cc1CO", "100%"),
    ("CCC(=O)N1CCN(c2ccc(-n3c(=O)ccc4cnc5ccc(-c6cnc7ccccc7c6)cc5c43)cc2C(F)(F)F)CC1", "78%"),
]

----------
# subject of test: MAPK3 (human) (UniProt P27361)
# Sequence (P27361 whole entry, looked up): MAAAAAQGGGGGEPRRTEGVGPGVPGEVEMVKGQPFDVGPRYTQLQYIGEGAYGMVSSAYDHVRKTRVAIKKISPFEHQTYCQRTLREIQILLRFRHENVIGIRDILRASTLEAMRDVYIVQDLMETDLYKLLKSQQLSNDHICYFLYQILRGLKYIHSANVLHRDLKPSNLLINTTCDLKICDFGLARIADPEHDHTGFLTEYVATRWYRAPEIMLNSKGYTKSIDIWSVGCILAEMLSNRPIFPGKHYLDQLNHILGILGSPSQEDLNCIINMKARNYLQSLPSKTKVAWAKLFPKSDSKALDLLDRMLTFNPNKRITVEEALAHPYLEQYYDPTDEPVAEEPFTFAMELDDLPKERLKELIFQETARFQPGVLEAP
# method summary: KINOMEscan competition binding
# measurement parameters: compound 10.0 µM
List of kinase still bound, per cent of control values.
measured attribute: kinase still bound, per cent of control (%)

# record smiles, units, result
measured = [
    ("CC(C)n1nc(-c2cc3cc(O)ccc3[nH]2)c2c(N)ncnc21", "%", 100),
    ("CCC(=O)N1CCN(c2ccc(-n3c(=O)ccc4cnc5ccc(-c6cnc7ccccc7c6)cc5c43)cc2C(F)(F)F)CC1", "%", 91),
    ("COc1ccc(-c2ccc3c(N4CCOCC4)nc(N4C[C@@H](C)O[C@@H](C)C4)nc3n2)cc1CO", "%", 100),
    ("COC(=O)Nc1ccc(-c2nc(N3CCOCC3)c3cnn(C4CCN(C(=O)OC)CC4)c3n2)cc1", "%", 99),
]
